test_target: SARS-CoV-2 Spike Protein (S1 Subunit, His Tag) (Sino 40591-V08H) (SARS-CoV-2, UniProt P0DTC2 16-685)
assay_notes: Luminex, supernatant
Each entry below carries its reported MFI.

binder: mAb10913 (antibody, V domains shown) VH: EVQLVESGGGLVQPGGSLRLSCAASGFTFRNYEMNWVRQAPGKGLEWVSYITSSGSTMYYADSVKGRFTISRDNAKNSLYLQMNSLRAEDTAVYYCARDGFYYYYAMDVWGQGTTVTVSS VL: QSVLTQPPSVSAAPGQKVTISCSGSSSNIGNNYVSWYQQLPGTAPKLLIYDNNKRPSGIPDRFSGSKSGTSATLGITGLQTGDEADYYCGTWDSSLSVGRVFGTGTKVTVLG
MFI, MFI: 24900
--
binder: mAb10989 (antibody, V domains shown) VH: QVQLVQSGAEVKKPGASVKVSCKASGYIFTGYYMHWVRQAPGQGLEWMGWINPNSGGANYAQKFQGRVTLTRDTSITTVYMELSRLRFDDTAVYYCARGSRYDWNQNNWFDPWGQGTLVTVSS VL: QSALTQPASVSGSPGQSITISCTGTSSDVGTYNYVSWYQQHPGKAPKLMIFDVSNRPSGVSDRFSGSKSGNTASLTISGLQAEDEADYYCSSFTTSSTVVFGGGTKLTVLG
MFI, MFI: 14200
--
binder: mAb10982 (antibody, V domains shown) VH: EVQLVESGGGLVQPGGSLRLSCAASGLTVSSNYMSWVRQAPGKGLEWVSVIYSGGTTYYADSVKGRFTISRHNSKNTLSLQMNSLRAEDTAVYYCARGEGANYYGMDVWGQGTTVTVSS VL: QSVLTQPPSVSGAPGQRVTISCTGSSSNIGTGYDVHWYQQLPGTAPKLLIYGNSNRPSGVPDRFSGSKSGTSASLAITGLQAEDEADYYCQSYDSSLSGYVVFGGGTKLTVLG
MFI, MFI: 14000

Reference source: patent US20240043504A1
